Record form. Attribute: EC (2-fold clotting time). Fill in for each entry.
# SYSTEM: bovine thrombin (Bos taurus, UniProt P00735)
# Construct: 50 µl bovine thrombin (2 NIH unit/ml)
# METHOD_DESCRIPTION: Plasma coagulation assay: thrombin time
# Format: biochemical
# CONDITION_SUMMARY: plasma, bovine thrombin (2 NIH unit/ml); read-out: Thrombin Time: concentration of test compounds required to prolong coagulation by 2-fold
Square brackets hold non-standard residues; d marks the D form. Peptide text beside a SMILES is read from it. * marks the point of attachment. dNMePhg = CN[C@@H](C(=O)O)c1ccccc1; dHpg = N[C@@H](C(=O)O)c1ccc(O)cc1; dChg = N[C@@H](C(=O)O)C1CCCCC1; dPhg = N[C@@H](C(=O)O)c1ccccc1; Boc = CC(C)(C)OC(=O)*
Answers are plain numbers, in µg/mL.

Some solved cases for reference:
{"COMPOUND": "COc1ccc([C@@H](NC(=O)OC(C)(C)C)C(=O)N2CCC[C@H]2C(=O)N[C@H](C=O)CCCNC(=N)N)cc1", "EC (2-fold clotting time) (µg/mL)": 0.08}
{"COMPOUND": "CC(C)(C)OC(=O)N[C@@H](C(=O)N1CCC[C@H]1C(=O)N[C@H](C=O)CCCNC(=N)N)c1ccc(O)cc1 [N-Boc-D-(4-hydroxy)phenylglycyl] (Boc-[dHpg]-Pro-Arg-aldehyde)", "EC (2-fold clotting time) (µg/mL)": 0.182}
{"COMPOUND": "CN[C@@H](C(=O)N1CCC[C@H]1C(=O)N[C@H](C=O)CCCNC(=N)N)c1ccccc1 [N-Methyl-D-phenylglycyl] (H-[dNMePhg]-Pro-Arg-aldehyde)", "EC (2-fold clotting time) (µg/mL)": 0.092}
{"COMPOUND": "CC(C)(C)OC(=O)N[C@@H](C(=O)N1CCC[C@H]1C(=O)N[C@H](C=O)CCCNC(=N)N)C1CCCCC1 [N-Boc-D-cyclohexylglycyl] (Boc-[dChg]-Pro-Arg-aldehyde)", "EC (2-fold clotting time) (µg/mL)": 0.079}
{"COMPOUND": "COc1ccc([C@@H](NC(C)=O)C(=O)N2CCC[C@H]2C(=O)N[C@H](C=O)CCCNC(=N)N)cc1", "EC (2-fold clotting time) (µg/mL)": 0.16}
{"COMPOUND": "CN(C(=O)OC(C)(C)C)[C@@H](C(=O)N1CCC[C@H]1C(=O)N[C@H](C=O)CCCNC(=N)N)c1ccccc1 [N-Boc-N-methyl-D-phenylglcyl] (Boc-[dNMePhg]-Pro-Arg-aldehyde)", "EC (2-fold clotting time) (µg/mL)": 0.3}

Hello, I would appreciate it if you could give EC (2-fold clotting time) for each entry below.
1. COc1ccc2cc([C@@H](NC(=O)OC(C)(C)C)C(=O)N3CCC[C@H]3C(=O)N[C@H](C=O)CCCNC(=N)N)ccc2c1
2. N=C(N)NCCC[C@@H](C=O)NC(=O)[C@@H]1CCCN1C(=O)[C@H](N)c1ccccc1 [D-Phenylglycyl, D-Phg-L-Pro-L-Arg-H] (H-[dPhg]-Pro-Arg-aldehyde)

Resp:
1. 0.46
2. 0.091

----------
# SYSTEM: thrombin (Bos taurus, UniProt P00735)
# Construct: purchased
# METHOD_DESCRIPTION: Inhibition of thrombin amidase activity (chromogenic substrate N-benzoyl-D-phenylalanyl-L-valyl-L-arginyl-p-nitroanilide)
# Format: biochemical
# CONDITION_SUMMARY: Thrombin Amidase Kass, apparent equilibrium (association) constant, mean over a range of concentrations; pH 7.4; acetate salts unless indicated otherwise
Where a name gives a salt, the structure may show the parent alone. Square brackets hold non-standard residues; d marks the D form. Peptide text beside a SMILES is read from it. * marks the point of attachment. dNMePhg = CN[C@@H](C(=O)O)c1ccccc1; dHpg = N[C@@H](C(=O)O)c1ccc(O)cc1; dChg = N[C@@H](C(=O)O)C1CCCCC1; dPhg = N[C@@H](C(=O)O)c1ccccc1; Boc = CC(C)(C)OC(=O)*
VALUE_TYPE: pKd
Give bare numbers, as −log10 of the molar value.

Example entries begin here.
{"COMPOUND": "CC(C)(C)OC(=O)N1CCc2ccccc2C1C(=O)N1CCC[C@H]1C(=O)N[C@H](C=O)CCCNC(=N)N (mixture of isomers)", "pKd": 6.58}
{"COMPOUND": "CN[C@@H](C(=O)N1CCC[C@H]1C(=O)N[C@H](C=O)CCCNC(=N)N)c1ccccc1 [N-Methyl-D-phenylglycyl] (H-[dNMePhg]-Pro-Arg-aldehyde)", "pKd": 7.96}
{"COMPOUND": "COc1ccc([C@@H](NC(C)=O)C(=O)N2CCC[C@H]2C(=O)N[C@H](C=O)CCCNC(=N)N)cc1 [N-Acetyl-D-(4-methoxy)phenylglycyl]", "pKd": 7.19}

Quick one: give me pKd for each item below, same order please.
1. NC(N)=NCCC[C@@H](C=O)NC(=O)[C@@H]1CCCN1C(=O)[C@H](N)c1ccccc1 [D-Phenylglycyl, D-Phg-L-Pro-L-Arg-H] (H-[dPhg]-Pro-Arg-aldehyde)
2. N=C(N)NCCC[C@@H](C=O)NC(=O)[C@@H]1CCCN1C(=O)C1NCCc2ccccc21 (mixture of isomers)
3. COc1ccc2cc([C@@H](NC(=O)OC(C)(C)C)C(=O)N3CCC[C@H]3C(=O)N[C@H](C=O)CCCNC(=N)N)ccc2c1 [N-Boc-D-(6-methoxy)-2-naphthylglycyl]
4. COc1ccc([C@@H](NC(=O)OC(C)(C)C)C(=O)N2CCC[C@H]2C(=O)N[C@H](C=O)CCCNC(=N)N)cc1 [N-Boc-D-(4-methoxy)phenylglycyl]
5. CC(C)(C)OC(=O)N[C@@H](C(=O)N1CCC[C@H]1C(=O)N[C@H](C=O)CCCN=C(N)N)c1ccccc1 [N-Boc-D-phenylglycyl (sulfate salt)] (Boc-[dPhg]-Pro-Arg-aldehyde)

Resp:
[7.88, 7.94, 6.79, 7.88, 8.03]

// for each compound below, give its pKd
1. CC(C)(C)OC(=O)NC(C(=O)N1CCC[C@H]1C(=O)N[C@H](C=O)CCCNC(=N)N)c1ccc(Cl)c(Cl)c1 (mixture of isomers) [N-Boc-DL-(3,4-dichloro)phenylglycyl]
2. CC(C)(C)OC(=O)N[C@@H](C(=O)N1CCC[C@H]1C(=O)N[C@H](C=O)CCCNC(=N)N)c1cccs1 [N-Boc-D-2-thienyiglycyl]
3. CN(C(=O)OC(C)(C)C)[C@@H](C(=O)N1CCC[C@H]1C(=O)N[C@H](C=O)CCCNC(=N)N)c1ccccc1 [N-Boc-N-methyl-D-phenylglcyl] (Boc-[dNMePhg]-Pro-Arg-aldehyde)

Resp:
1: 7.60; 2: 7.15; 3: 6.72

Okay, here is my list. What is pKd for each of these?
1. CC(C)(C)OC(=O)N[C@@H](C(=O)N1CCC[C@H]1C(=O)N[C@H](C=O)CCCN=C(N)N)c1ccc(O)cc1 [N-Boc-D-(4-hydroxy)phenylglycyl] (Boc-[dHpg]-Pro-Arg-aldehyde)
2. CC(C)(C)OC(=O)N[C@@H](C(=O)N1CCC[C@H]1C(=O)N[C@H](C=O)CCCN=C(N)N)C1CCCCC1 [N-Boc-D-cyclohexylglycyl] (Boc-[dChg]-Pro-Arg-aldehyde)

Resp:
1. 8.06
2. 8.08
